Target: UniProt:P59538
Sequence (P59538 whole entry): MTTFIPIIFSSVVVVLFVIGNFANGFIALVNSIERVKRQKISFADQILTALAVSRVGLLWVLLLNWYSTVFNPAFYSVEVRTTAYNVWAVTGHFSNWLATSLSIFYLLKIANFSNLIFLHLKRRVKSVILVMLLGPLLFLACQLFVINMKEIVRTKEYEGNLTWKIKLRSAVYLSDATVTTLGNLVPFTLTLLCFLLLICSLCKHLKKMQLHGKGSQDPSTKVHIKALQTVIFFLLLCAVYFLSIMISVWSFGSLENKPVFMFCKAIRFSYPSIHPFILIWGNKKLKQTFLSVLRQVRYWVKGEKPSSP
Test: hT2R panel inhibition, transient HEK293 G16g44, agonist Aristolochic Acid 1 μM
Assay type: cell-based
Conditions: HEK293, compound at 25 μM; receptor activated to EC80 with the corresponding agonist; read-out: screening result against bitter receptor 64
Would you kindly list inhibition at 25 µM for each of these compounds?

Would you mind giving inhibition at 25 µM for every compound in the list below?
1. COc1ccc(CN(Cc2ccccc2)C(=O)Nc2ccc(C(=O)O)cc2)cc1
2. COc1ccc(CN(Cc2ccccc2)S(=O)(=O)c2ccc(C(=O)O)cc2)cn1
3. Cc1ccc(S(=O)(=O)N(Cc2ccc(F)cc2)CC2CCC(C(=O)O)CC2)cc1 (stereo not drawn)
4. Cc1ccc(S(=O)(=O)N(Cc2ccccc2)CC2CCC(C(=O)O)CC2)cc1 (stereo not drawn)
5. CSc1ccc(CN(Cc2ccccc2)S(=O)(=O)c2ccc(C(=O)O)cc2)cc1
6. O=C(O)C1CCC(CN(Cc2ccc(F)cc2)S(=O)(=O)c2ccccn2)CC1 (stereo not drawn)

Response:
["60 to 80%", "60 to 80%", "60 to 80%", "40 to 60%", "40 to 60%", "40 to 60%"]

====

Would you kindly list inhibition at 25 µM for each of these compounds?
Target: hT2R7 (Homo sapiens (Human), UniProt Q9NYW3)
Sequence (Q9NYW3 whole entry): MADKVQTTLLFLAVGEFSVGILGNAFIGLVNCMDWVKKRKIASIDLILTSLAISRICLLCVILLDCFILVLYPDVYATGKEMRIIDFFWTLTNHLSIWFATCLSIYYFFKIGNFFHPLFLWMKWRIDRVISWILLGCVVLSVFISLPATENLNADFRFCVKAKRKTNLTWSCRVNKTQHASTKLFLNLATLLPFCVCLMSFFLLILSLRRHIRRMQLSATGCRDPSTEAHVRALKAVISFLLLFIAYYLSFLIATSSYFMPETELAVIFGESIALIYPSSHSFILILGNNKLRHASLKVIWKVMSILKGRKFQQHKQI
Assay: hT2R panel inhibition, transient HEK293 G16g44, agonist Chloroquine pH6.5 10 mM
Format: cell-based
Details: HEK293, compound at 25 μM; receptor activated to EC80 with the corresponding agonist; read-out: screening result against bitter receptor 7

[[record]]
compound = "CCCN(Cc1ccc(OC)cc1)S(=O)(=O)c1ccc(C(=O)O)cc1 [Example 5-17]"
result = "20 to 40%"

[[record]]
compound = "COc1ccccc1CN(Cc1ccc(C(=O)O)cc1)S(=O)(=O)c1ccccc1 [Example 5-100]"
result = "20 to 40%"

[[record]]
compound = "COc1ccc(CN(Cc2cccc(F)c2)S(=O)(=O)c2ccc(C(=O)O)cc2)cc1 [Example 5-12]"
result = "40 to 60%"


Would you mind giving inhibition at 25 µM for every compound in the list below?
1. COc1ccc(CN(Cc2ccsc2)S(=O)(=O)c2ccc(C(=O)O)cc2)cc1 [Example 5-62]
2. COc1ccc(CN(Cc2ccc(F)c(F)c2)S(=O)(=O)c2ccc(C(=O)O)cc2)cc1 [Example 5-36]
3. COc1ccccc1CN(Cc1ccco1)S(=O)(=O)c1ccc(C(=O)O)cc1 [Example 5-7]

Response:
1. 20 to 40%
2. 20 to 40%
3. 20 to 40%

Would you mind giving inhibition at 25 µM for every compound in the list below?
1. COc1ccc(CN(Cc2ccccc2C#N)S(=O)(=O)c2ccc(C(=O)O)cc2)cc1 [Example 5-25]
2. O=C(O)c1ccc(S(=O)(=O)N(Cc2ccccc2)Cc2ccc3c(c2)OCO3)cc1 [Example 5-93]
3. COc1ccccc1CN(Cc1ccccc1)S(=O)(=O)c1ccc(C(=O)O)cc1 [Example 5-71]
4. COc1ccc(CN(Cc2ccccc2)S(=O)(=O)c2ccc(C(=O)O)cc2)cc1C [Example 5-89]
5. COc1ccc(CN(Cc2ccccc2OC)S(=O)(=O)c2ccc(C(=O)O)cc2)cc1 [Example 5-58]

Response:
1. 40 to 60%
2. 20 to 40%
3. 20 to 40%
4. 40 to 60%
5. 60 to 80%

Would you mind giving inhibition at 25 µM for every compound in the list below?
1. COc1ccc(CN(Cc2ccc(F)cc2)S(=O)(=O)c2ccc(C(=O)O)cc2)cc1 [Example 5-10]
2. COc1ccc(N(Cc2ccccc2)S(=O)(=O)c2ccc(C(=O)O)cc2)cc1 [Example 5-35]
3. O=C(O)c1ccc(CN(Cc2ccccc2F)S(=O)(=O)c2ccccc2)cc1 [Example 5-103]
4. O=C(O)c1ccc(S(=O)(=O)N(Cc2ccccc2)Cc2ccc(Cl)cc2)cc1 [Example 5-77]
5. COc1cccc(CN(Cc2ccco2)S(=O)(=O)c2ccc(C(=O)O)cc2)c1 [Example 5-6]
6. O=C(O)C1CCC(CN(Cc2ccc(F)cc2)S(=O)(=O)c2ccccn2)CC1 (centres unmarked) [Example 5-53]
7. N#Cc1ccccc1CN(Cc1ccccc1)S(=O)(=O)c1ccc(C(=O)O)cc1 [Example 5-92]

Response:
["40 to 60%", "20 to 40%", "20 to 40%", "20 to 40%", "20 to 40%", "20 to 40%", "20 to 40%"]

Would you mind giving inhibition at 25 µM for every compound in the list below?
1. COc1ccc(CN(Cc2cccc(OC)c2)S(=O)(=O)c2ccc(C(=O)O)cc2)cc1 [Example 5-34]
2. COc1cccc(CN(Cc2ccccc2)S(=O)(=O)c2ccc(C(=O)O)cc2)c1 [Example 5-74]
3. Cc1cccc(CN(Cc2ccccc2)S(=O)(=O)c2ccc(C(=O)O)cc2)c1 [Example 5-73]
4. COc1ccc(CN(Cc2ccco2)S(=O)(=O)c2ccc(C(=O)O)cc2)cc1 [Example 5-2]
5. Cc1ccccc1CN(Cc1ccccc1)S(=O)(=O)c1ccc(C(=O)O)cc1 [Example 5-80]

Response:
1: 20 to 40%; 2: 20 to 40%; 3: 20 to 40%; 4: 40 to 60%; 5: 20 to 40%

Taken from patent US9247759B2.
